Target: Dopamine D1 (Homo sapiens, UniProt P21728)
Sequence (P21728 whole entry): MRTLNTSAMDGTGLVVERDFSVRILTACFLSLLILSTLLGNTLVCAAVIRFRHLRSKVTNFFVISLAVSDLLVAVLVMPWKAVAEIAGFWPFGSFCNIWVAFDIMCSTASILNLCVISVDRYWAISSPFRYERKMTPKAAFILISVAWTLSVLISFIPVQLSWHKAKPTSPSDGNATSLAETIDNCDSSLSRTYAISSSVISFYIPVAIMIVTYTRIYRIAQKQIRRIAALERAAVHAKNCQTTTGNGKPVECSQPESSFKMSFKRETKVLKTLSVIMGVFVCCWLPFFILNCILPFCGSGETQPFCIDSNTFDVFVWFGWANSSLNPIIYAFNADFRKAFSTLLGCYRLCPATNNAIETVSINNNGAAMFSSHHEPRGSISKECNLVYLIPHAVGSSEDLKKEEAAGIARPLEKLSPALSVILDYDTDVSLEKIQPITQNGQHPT
Experiment: Receptor binding, D1
pKi: −log10 of the molar value.
readout type: pKi

INSERT INTO results (compound, system_name, readout_type, result) VALUES
  ('CN1CCc2c(c3cccc4c3n2Cc2ccccc2O4)C1 [Compound 13b]', 'Dopamine D1 (Homo sapiens, UniProt P21728)', 'pKi', '< 5.00');

---

pKi: −log10 of the molar value.
// Serotonin 5-HT2B (Homo sapiens, UniProt P41595) pKi records
readout type: pKi

INSERT INTO results (compound, quantitative_readout) VALUES
  ('CN1CCc2c(c3cccc4c3n2Cc2ccccc2O4)C1 [Compound 13b]', 6.71),
  ('CN1CCc2c(c3cccc4c3n2-c2ccccc2CC4)C1 [Compound 6a, reference compound]', 7.06),
  ('CN1CCc2c(c3cccc4c3n2Cc2ccccc2C4)C1 [Compound 13a]', 7.24);
